Tested on: RXRa homodimer (NR concentration 180 nM)
Test: PBM binding z-score (relative to random genomic background probes); higher = stronger binding; sequences stand for … in GC…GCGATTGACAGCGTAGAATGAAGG
Readout kind: PBM binding z-score
Lab note: write the figure by itself, no unit.

Worked examples, 3 sequences total:
sequence=ATCGAAAGGTCGAATGTGAGTATACCCACCCGAA recorded_result=4.23
sequence=ATCTCTAGATAACAAGTTCAGTGAAAGAGAGGAC recorded_result=0.621
sequence=GGTACAGGGTCAAGGCCAGAGTACGCGTATTGAT recorded_result=5.91

Prompt: Fill blank: measured PBM binding z-score of the sequence "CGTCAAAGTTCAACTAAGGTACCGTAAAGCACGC" is ____.
Response: 5.35

Prompt: Fill blank: measured PBM binding z-score of the sequence "CGTCCAAGGTCAATGCCAGGTCAGTGAAAGCATT" is ____.
Response: 5.27

Prompt: Fill blank: measured PBM binding z-score of the sequence "AATAGAGGGTCATCGTAGGCCAGAGTACGCACAG" is ____.
Response: 5.77
